Known normalized RNA/DNA level with ligand (log10) of a selection of variants
B1: library; a variant is named by its letters at N, in order (parent)
chain: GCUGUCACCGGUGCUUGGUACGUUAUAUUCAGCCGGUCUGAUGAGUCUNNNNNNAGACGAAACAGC

# Variants of: B1
# Assay info: normalized RNA/DNA level with ligand (relative to sTRSVctl = 100) (log10 (% of sTRSVctl)); HEK293T overexpressing SLC46A1; ligand concentration (+) RNA-Seq: 6 mM; higher = less ribozyme self-cleavage, higher mRNA level
# Condition parameters: with (6R,S)-folinic acid; ligand present: yes
Just the number, please.

>  <Construct sequence>
GCUGUCACCGGUGCUUGGUACGUUAUAUUCAGCCGGUCUGAUGAGUCUCAUACGAGACGAAACAGC [CAUACG]

>  <Value reported>
2

$$$$
>  <Construct sequence>
GCUGUCACCGGUGCUUGGUACGUUAUAUUCAGCCGGUCUGAUGAGUCUUCUCGGAGACGAAACAGC [UCUCGG]

>  <Value reported>
2.04

$$$$
>  <Construct sequence>
GCUGUCACCGGUGCUUGGUACGUUAUAUUCAGCCGGUCUGAUGAGUCUACAAAGAGACGAAACAGC [ACAAAG]

>  <Value reported>
2.01

$$$$
>  <Construct sequence>
GCUGUCACCGGUGCUUGGUACGUUAUAUUCAGCCGGUCUGAUGAGUCUACGAUGAGACGAAACAGC [ACGAUG]

>  <Value reported>
2.03

$$$$

Query: // returns reported normalized RNA/DNA level with ligand (log10) for input GCUGUCACCGGUGCUUGGUACGUUAUAUUCAGCCGGUCUGAUGAGUCUCAUCUGAGACGAAACAGC [CAUCUG]
Response: 2.02

Query: normalized RNA/DNA level with ligand (log10) for GCUGUCACCGGUGCUUGGUACGUUAUAUUCAGCCGGUCUGAUGAGUCUAUGGGUAGACGAAACAGC [AUGGGU] ?
Response: 2

Query: Find the recorded normalized RNA/DNA level with ligand (log10) belonging to GCUGUCACCGGUGCUUGGUACGUUAUAUUCAGCCGGUCUGAUGAGUCUGUUUGUAGACGAAACAGC [GUUUGU] and report it.
Response: 2.03

Query: Give its normalized RNA/DNA level with ligand (log10) value. Item: GCUGUCACCGGUGCUUGGUACGUUAUAUUCAGCCGGUCUGAUGAGUCUCGCGGAAGACGAAACAGC [CGCGGA]
Response: 2.05
